tested on: rhinovirus, HRV-14; experiment: Anti-picornaviral plaque reduction assay; type: cell-based; conditions: Rhinovirus B, HRV14, Table 1, 50% inhibition of plaque formation, BSC-1 or Hela cells, 120 hours at 32° C., trans isomer
Readout kind: IC50 (µg/mL)
Numeric answer only, unit µg/mL assumed.

COC(=O)/C=C(\c1ccccc1)c1ccc2nc(N)n(S(=O)(=O)C(C)C)c2c1 [12 (parent), reference compound]; 0.05
CC(C)S(=O)(=O)n1c(N)nc2ccc(/C(=N/O)c3ccccc3)cc21 [13 (parent), reference compound]; 0.05

Below: the item to evaluate.
Specify measured IC50 for CC(=O)/C=C(/c1ccc2nc(N)n(S(=O)(=O)C(C)C)c2c1)c1cccc(F)c1F . 0.048

###

tested on: rhinovirus, HRV-14; assay: Anti-picornaviral plaque reduction assay; format: cell-based; settings: Rhinovirus B, HRV14, Table 1, 50% inhibition of plaque formation, BSC-1 or Hela cells, 120 hours at 32° C., trans isomer
Listed here are molecules together with their documented IC50.
Please respond with the number in µg/mL and leave the unit unwritten.

Answered cases to consult:
CS/C=C(/c1ccc2nc(N)n(S(=O)(=O)C(C)C)c2c1)c1cccc(F)c1F [Example 9]; 0.072
CC(C)S(=O)(=O)n1c(N)nc2ccc(/C(=C/[S+](C)[O-])c3ccccc3)cc21 (centres unmarked) [10 (parent), reference compound]; 3.52
CC(=O)/C=C(\c1ccc(F)cc1)c1ccc2nc(N)n(S(=O)(=O)C(C)C)c2c1 [Example 14]; 0.21

Complete the entry with IC50 for CC(C)S(=O)(=O)n1c(N)nc2ccc(/C(=C/S(C)(=O)=O)c3cccc(F)c3F)cc21 [Example 8] 0.05

Specify IC50 for CC(C)S(=O)(=O)n1c(N)nc2ccc(/C(=N/O)c3cccc(F)c3F)cc21 [Example 13] and stop. 0.051

Identify IC50 associated with the molecule CS/C=C(\c1ccccc1)c1ccc2nc(N)n(S(=O)(=O)C(C)C)c2c1 [9 (parent), reference compound] 2.58

Kindly indicate its recorded IC50. Item: COC(=O)/C=C(/c1ccc2nc(N)n(S(=O)(=O)C(C)C)c2c1)c1cccc(F)c1F [Example 12] 0.052

Return reported IC50. Input molecule: CC(C)S(=O)(=O)n1c(N)nc2ccc(/C(=C/[S+](C)[O-])c3cccc(F)c3F)cc21 (centres unmarked) [Example 10] 0.394
